# PROCEDURE SUMMARY: Cytotoxicity of nucleoside analogues in BHK-21 cell cultures
# Type: cell-based
# EXPERIMENTAL PARAMETERS: hamster, bhk-21 cells
READOUT KIND: MNTC (µg/mL)
Please reply with the bare figure in µg/mL and do not write the unit itself.

O=c1[nH]c(=O)n([C@@H]2O[C@H](CO)[C@@H](O)[C@H]2O)cc1/C=C/Br [A, (E)-5-(2-Bromovinyl)-uridine]
126

Let us examine a further case.
The reported MNTC of the compound O=c1[nH]c(=O)n([C@H]2C[C@H](O)[C@@H](CO)O2)cc1I [C, 5iodo-2deoxy-uridine] was 0.1

====

# PROCEDURE SUMMARY: Cytotoxicity of nucleoside analogues in HeLa cell cultures
# Format: cell-based
# EXPERIMENTAL PARAMETERS: human, hela cells; read-out: CT50 (the source's name) (converted)
READOUT KIND: CC50
Note: a bare number is incomplete; add the unit.

The reported CC50 of the molecule O=c1[nH]c(=O)n([C@H]2C[C@H](O)[C@@H](CO)O2)cc1/C=C/Br [B, (E)-5-(2-bromovinyl)-2'-deoxy-uridine, reference compound] was 251 µg/mL

====

# PROCEDURE SUMMARY: Cytotoxicity of nucleoside analogues in Vero cell cultures
# Assay type: cell-based
# EXPERIMENTAL PARAMETERS: monkey, vero cells
READOUT KIND: MNTC (µg/mL)
Please reply with the bare figure in µg/mL and do not write the unit itself.

O=c1[nH]c(=O)n([C@@H]2O[C@H](CO)[C@@H](O)[C@H]2O)cc1/C=C/Br [A, (E)-5-(2-Bromovinyl)-uridine]
100

Let us examine a further case.
The reported MNTC of the molecule `O=c1[nH]c(=O)n([C@H]2C[C@H](O)[C@@H](CO)O2)cc1I` was 31.6

====

This section presents compounds with their documented CC50 values.
# PROCEDURE SUMMARY: Cytotoxicity of nucleoside analogues in RK-13 cell cultures
# Type: cell-based
# EXPERIMENTAL PARAMETERS: rabbit, rk-13 cells
Please reply with the bare figure in µg/mL and do not write the unit itself.

O=c1[nH]c(=O)n([C@H]2C[C@H](O)[C@@H](CO)O2)cc1I
79.4

Let us examine a further case.
The reported CC50 of the compound O=c1[nH]c(=O)n([C@@H]2O[C@H](CO)[C@@H](O)[C@H]2O)cc1/C=C/Br [A, (E)-5-(2-Bromovinyl)-uridine] was 501

====

# PROCEDURE SUMMARY: Cytotoxicity of nucleoside analogues in Vero cell cultures
# Type: cell-based
# EXPERIMENTAL PARAMETERS: monkey, vero cells
This section presents compounds with their documented CC50 values.

O=c1[nH]c(=O)n([C@@H]2O[C@H](CO)[C@@H](O)[C@H]2O)cc1/C=C/Br [A, (E)-5-(2-Bromovinyl)-uridine]
398 µg/mL

Let us examine a further case.
The reported CC50 of the compound `O=c1[nH]c(=O)n([C@H]2C[C@H](O)[C@@H](CO)O2)cc1I` was 39.8 µg/mL

====

# PROCEDURE SUMMARY: Cytotoxicity of nucleoside analogues in HeLa cell cultures
# Format: cell-based
# EXPERIMENTAL PARAMETERS: human, hela cells
READOUT KIND: CC50 (µg/mL)
Please reply with the bare figure in µg/mL and do not write the unit itself.

The reported CC50 of the compound `O=c1[nH]c(=O)n([C@H]2C[C@H](O)[C@@H](CO)O2)cc1I` was 20

The reported CC50 of the compound O=c1[nH]c(=O)n([C@@H]2O[C@H](CO)[C@@H](O)[C@H]2O)cc1/C=C/Br [A, (E)-5-(2-Bromovinyl)-uridine] was 398

The reported CC50 of the compound `Nc1nc(=O)n([C@H]2C[C@H](O)[C@@H](CO)O2)cc1I` was 7.94

====

# PROCEDURE SUMMARY: Cytotoxicity of nucleoside analogues in HeLa cell cultures
# Type: cell-based
# EXPERIMENTAL PARAMETERS: human, hela cells; HeLa; highest concentration not impairing the tissue; read-out: CTo (converted)
READOUT KIND: MNTC (µg/mL)
Please reply with the bare figure in µg/mL and do not write the unit itself.

The reported MNTC of the molecule O=c1[nH]c(=O)n([C@H]2C[C@H](O)[C@@H](CO)O2)cc1/C=C/Br [B, (E)-5-(2-bromovinyl)-2'-deoxy-uridine, reference compound] was 39.8

Attribution: patent US4544740A
